# study_conditions: in benzene, 308.15 K
measured_metric: solubility (mole fraction)
Lab note: jot the number down without any unit.

Input line: Look up solubility (mole fraction) of O=[N+]([O-])c1cn[nH]c1[N+](=O)[O-] and report it.
Output line: 0.00264

###

# study_conditions: in anisole, 303.15 K
measured_metric: solubility (mole fraction)
Lab note: jot the number down without any unit.

Input line: Look up solubility (mole fraction) of O=[N+]([O-])c1cn[nH]c1[N+](=O)[O-] and report it.
Output line: 0.058

###

# study_conditions: in toluene, 328.15 K
measured_metric: solubility (mole fraction)
Lab note: jot the number down without any unit.

Input line: Look up solubility (mole fraction) of O=[N+]([O-])c1cn[nH]c1[N+](=O)[O-] and report it.
Output line: 0.00601
